- Tested on: SK-MEL-5 melanoma
- TEST_PROTOCOL: NCI tumour cell line growth inhibition, 48 h
RECORDED_ENDPOINT: TGI (µM)
One number for each entry, in µM.

Sample answers from the record:
COMPOUND | RECORDED_ENDPOINT | VALUE_REPORTED
CN1CCN(c2ccc3nc(-c4ccc5nc(-c6ccc(C(F)(F)F)cc6)[nH]c5c4)[nH]c3c2)CC1 | TGI | 15.5
COc1ccc(S(=O)(=O)N2CCCCC2)cc1NC(=O)c1[nH]c(C)c2c1CCCCC2=O | TGI | 3.88
S=C1SC2(CCCCCC2)NC2=C1CCCCC2 | TGI | 43.2
COc1cccc2c1C(=O)c1c(O)c3c(c(O)c1C2=O)C[C@@](O)(C(=O)COC(=O)c1cccnc1)C[C@@H]3OC1CC(N)C(O)C(C)O1 (stereo not given in full) | TGI | 0.252

Kindly review the next compound as well.
### Prompt # input compound: COc1cccc(NC(=O)c2ccc(C(F)(F)F)nc2Nc2ccc(Cl)cc2C)c1 ; wanted: its TGI
### Response 27.8

###

- Test system: SF-268 CNS
- TEST_PROTOCOL: NCI tumour cell line growth inhibition, 48 h
Assignment: determine reported log10 TGI for the given compounds.
Field: value | Transform: log10 | Quantity: TGI | Unit: µM

The examples below pair each entry with its known result.
COMPOUND | RECORDED_ENDPOINT | VALUE_REPORTED
C[C@@H]1O[C@@H]2OCC[C@@H]2C2=C1C(=O)c1ccccc1C2=O | log10 TGI | 1.23
CC(C)(C)c1ccc(NC(=O)c2cc(=O)c3ccccc3[nH]2)c(C(C)(C)C)c1O | log10 TGI | 1.35
COc1cc2c(cc1OCCN1C(=O)c3cccc4cccc(c34)C1=O)N=C[C@@H]1CCCN1C2=O | log10 TGI | 1.18

Give log10 TGI for all compounds that follow.
1. N=C(N)SC1c2ccccc2-c2cc([N+](=O)[O-])ccc21 (centres undefined)
2. COc1cc2c(c(OC)c1OC)C(=O)c1c-2n(CCCN)c(=O)c2cc([N+](=O)[O-])ccc12
3. C=C(C)[C@@H]1CC[C@]2(C)[C@H](CC=C3[C@@H]4CC(C)(C)CC[C@]4(C(=O)OC)CC[C@]32C)[C@@]1(C)CC/C(N)=N/O

### Response
[1.16, 0.29, 0.68]

Working through the 3 compounds below one at a time, give log10 TGI for each.
1. O=[N+]([O-])/C=C/c1cccc(F)c1
2. C#CCCCCC#CC1CCCC1C1=CC(=O)c2ccccc21 (centres undefined)
3. O=C(/C=C/c1ccc(O)c(O)c1)Oc1ccccc1

### Response
1. 1.47
2. 1.07
3. 1.51

###

For each record, write down the corresponding log10 TGI.
- Test system: HS 578T breast
- TEST_PROTOCOL: NCI tumour cell line growth inhibition, 48 h
All values: base-10 log of TGI in µM.

Recorded log10 TGI, per entry:
MOLECULE | VALUE_REPORTED
CCCCCCCCCCCCCC/C(=C/OCC[N+](C)(C)C)OC(C)=O (tested in a mixture with another compound) | 0.72
COc1cc2c(C#N)n3c(c2cc1OC)C(=O)C(c1ccccc1)Oc1ccccc1-3 (stereo not given) | 1.82
COc1ccc(OC)c(-c2cn3nc(-c4c[nH]c5ccc(Br)cc45)sc3n2)c1 | 1.16
O=C(Oc1ccccc1Cl)c1cccnc1Nc1ccnc(C(F)(F)F)c1 | 1.69
O=c1[nH]ncc2[nH]c3c(c12)CCCc1ccccc1-3 | 1.66
COc1ccc(C(=O)N=C2N(c3ccccc3)C(=Nc3ccccc3)C(=Nc3ccccc3)N2c2ccccc2)cc1 | 1.98
O=c1cc2oc3ccc4ccccc4c3cc-2c(=O)[nH]1 | 1.77

### Prompt Any idea what log10 TGI was measured for CC1=CC(=O)c2cccc(O)c2C1=O ?
### Response 0.85
